Listing of recorded combination Emax by entry.
test system: EW-11 (Ewing's Sarcoma); test: combination Emax (second highest fraction inhibited in the dose matrix, 72 h); higher = more inhibition; extreme values may be limits of the assay
Write the value as a bare number.

Sample records with combination Emax:
CN(CCO)CC[C@H](CSc1ccccc1)Nc1ccc(S(=O)(=O)NC(=O)c2ccc(N3CCC([C@@H](O)c4ccccc4-c4ccc(Cl)cc4)CC3)cc2)cc1S(=O)(=O)C(F)(F)F [AZD4320] + Cc1cc2ncnn2cc1Nc1ncc2c(n1)n(C1CCOCC1)c(=O)n2C [AZD7648] (first compound max 1 µM, 7x7, partner max 10 µM)    0.829
C[C@@H](Oc1cc(-c2cnn(C3CCNCC3)c2)cnc1N)c1c(Cl)ccc(F)c1Cl [Crizotinib] + Cn1cnc2c(F)c(Nc3ccc(Br)cc3Cl)c(C(=O)NOCCO)cc21 [Selumetinib] (first compound max 10 µM, 7x7, partner max 10 µM)    0.81

**Query** What value of measured combination Emax is listed for NC1(C(=O)N[C@@H](CCO)c2ccc(Cl)cc2)CCN(c2ncnc3[nH]ccc23)CC1 [Capivasertib] + CC(C)n1c(=O)n(C)c2cnc3cc(F)c(-c4ccc(OCCCN5CCCCC5)nc4)cc3c21 [AZD1390] (first compound max 10 µM, 7x7, partner max 0.3 µM) ?
**Result** 0.511

**Query** What value of measured combination Emax is listed for Cc1cc2ncnn2cc1Nc1ncc2c(n1)n(C1CCOCC1)c(=O)n2C [AZD7648] + C[C@@H]1COCCN1C2=NC(=NC(=C2)C3(CC3)[S@](=N)(=O)C)C4=C5C=CNC5=NC=C4 [AZD6738] (first compound max 10 µM, 7x7, partner max 10 µM) ?
**Result** 0.748

---

Listing of recorded Bliss excess by entry.
tested on: HuH-7 (Hepatocellular Carcinoma); assay: Bliss excess, mean over the matrix (fraction); higher = more synergy;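 further: after 72 h of two-drug dosing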

CC1(C)CCC(CN2CCN(c3ccc(C(=O)NS(=O)(=O)c4ccc(NCC5CCOCC5)c([N+](=O)[O-])c4)c(Oc4cnc5[nH]ccc5c4)c3)CC2)=C(c2ccc(Cl)cc2)C1 [Venetoclax] + CN(C)CCCOc1ccc(-c2ccc3ncc4c(c3c2)n(C2CCOCC2)c(=O)n4C)cn1 [AZD0156] (first compound max 1 µM, 7x7, partner max 1 µM)    0.0028

Consider the additional compound presented here.
**Query** What value of measured Bliss excess is listed for COc1cccc(OCCCN)c1-c1cc(Nc2cnc(C#N)cn2)n[nH]1 [Prexasertib] + C[C@@H]1COCCN1C2=NC(=NC(=C2)C3(CC3)[S@](=N)(=O)C)C4=C5C=CNC5=NC=C4 [AZD6738] (first compound max 1 µM, 7x7, partner max 10 µM) ?
**Result** 0.0392

---

system: SAS (Oral Cavity Carcinoma); experiment: combination Emax (second highest fraction inhibited in the dose matrix, 72 h); higher = more inhibition; extreme values may be limits of the assay
Quantity: combination Emax
Write the value as a bare number.

CC1(C)CCC(CN2CCN(c3ccc(C(=O)NS(=O)(=O)c4ccc(NCC5CCOCC5)c([N+](=O)[O-])c4)c(Oc4cnc5[nH]ccc5c4)c3)CC2)=C(c2ccc(Cl)cc2)C1 [Venetoclax] + CN(C)CCCOc1ccc(-c2ccc3ncc4c(c3c2)n(C2CCOCC2)c(=O)n4C)cn1 [AZD0156] (first compound max 1 µM, 7x7, partner max 1 µM)    0.256
O=C(c1cc(Cc2n[nH]c(=O)c3ccccc23)ccc1F)N1CCN(C(=O)C2CC2)CC1 [Olaparib] + Cc1c2c(nn1C)CSCc1cc(n(C)n1)CSc1cc(c3ccccc3c1)OCCCc1c(C(=O)O)n(C)c3c-2c(Cl)ccc13 [AZD5991] (first compound max 10 µM, 7x7, partner max 1 µM)    0.122
C[C@@H](Nc1cc(F)cc(F)c1)c1cc(C(=O)N(C)C)cc2c(=O)cc(N3CCOCC3)oc12 [AZD8186] + CC(=O)c1c(C)c2cnc(Nc3ccc(N4CCNCC4)cn3)nc2n(C2CCCC2)c1=O [Palbociclib] (first compound max 10 µM, 7x7, partner max 10 µM)    0.609
CC(=O)c1c(C)c2cnc(Nc3ccc(N4CCNCC4)cn3)nc2n(C2CCCC2)c1=O [Palbociclib] + Cn1cnc2c(F)c(Nc3ccc(Br)cc3Cl)c(C(=O)NOCCO)cc21 [Selumetinib] (first compound max 10 µM, 7x7, partner max 10 µM)    0.711
CN(CCO)CC[C@H](CSc1ccccc1)Nc1ccc(S(=O)(=O)NC(=O)c2ccc(N3CCC([C@@H](O)c4ccccc4-c4ccc(Cl)cc4)CC3)cc2)cc1S(=O)(=O)C(F)(F)F [AZD4320] + Cc1cc2ncnn2cc1Nc1ncc2c(n1)n(C1CCOCC1)c(=O)n2C [AZD7648] (first compound max 1 µM, 7x7, partner max 10 µM)    0.118

**Query** What value of measured combination Emax is listed for CC1(C)CCC(CN2CCN(c3ccc(C(=O)NS(=O)(=O)c4ccc(NCC5CCOCC5)c([N+](=O)[O-])c4)c(Oc4cnc5[nH]ccc5c4)c3)CC2)=C(c2ccc(Cl)cc2)C1 [Venetoclax] + C=CCn1c(=O)c2cnc(Nc3ccc(N4CCN(C)CC4)cc3)nc2n1-c1cccc(C(C)(C)O)n1 [AZD1775] (first compound max 1 µM, partner max 1 µM) ?
**Result** 0.761

**Query** What value of measured combination Emax is listed for Cc1c2c(nn1C)CSCc1cc(n(C)n1)CSc1cc(c3ccccc3c1)OCCCc1c(C(=O)O)n(C)c3c-2c(Cl)ccc13 [AZD5991] + CN(C)CCCOc1ccc(-c2ccc3ncc4c(c3c2)n(C2CCOCC2)c(=O)n4C)cn1 [AZD0156] (first compound max 1 µM, 7x7, partner max 1 µM) ?
**Result** 0.268
